Target: human DLL4 protein (Acro, Cat. No. DL4-H5227) (human) (UniProt Q9NR61)
Sequence (Q9NR61 27-524 limits assumed): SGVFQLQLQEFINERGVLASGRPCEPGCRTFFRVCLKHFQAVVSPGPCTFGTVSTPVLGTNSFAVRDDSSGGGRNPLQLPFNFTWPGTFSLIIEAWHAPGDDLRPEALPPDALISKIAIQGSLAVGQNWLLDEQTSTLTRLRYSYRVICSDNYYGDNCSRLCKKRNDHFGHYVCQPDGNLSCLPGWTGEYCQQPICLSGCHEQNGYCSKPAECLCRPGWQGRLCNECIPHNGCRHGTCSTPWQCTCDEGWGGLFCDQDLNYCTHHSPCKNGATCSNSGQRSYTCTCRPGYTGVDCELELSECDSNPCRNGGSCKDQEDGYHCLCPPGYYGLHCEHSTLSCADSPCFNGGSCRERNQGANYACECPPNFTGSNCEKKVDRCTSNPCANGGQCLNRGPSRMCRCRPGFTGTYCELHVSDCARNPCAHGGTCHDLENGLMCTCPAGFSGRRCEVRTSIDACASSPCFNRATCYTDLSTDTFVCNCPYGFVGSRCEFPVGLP
Assay: ELISA, coated hDLL4; maximum over 0.1, 1, 10, 100 nM antibody
Emax of OD450 nm binding value by entry:
Your answer should be a plain number; it is taken to be in OD450 nm.

Some binders with recorded Emax of OD450 nm binding value:
Hab015VL5VH6a-hFc (scFv, part only; not given: scFv linker and human IgG1 Fc, V domains shown, not shown: another chain or arm of the molecule; a dimerising Fc or GST; small tags and cut ends) VL: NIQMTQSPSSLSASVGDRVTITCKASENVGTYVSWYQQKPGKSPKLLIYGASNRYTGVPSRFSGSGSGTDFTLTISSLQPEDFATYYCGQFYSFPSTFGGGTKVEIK VH: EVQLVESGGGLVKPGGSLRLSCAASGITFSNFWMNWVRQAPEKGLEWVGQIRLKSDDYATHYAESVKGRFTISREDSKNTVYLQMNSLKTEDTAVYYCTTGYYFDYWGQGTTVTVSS    0.82
Hab014VL2VH1-hFc (scFv, part only; not given: scFv linker and human IgG1 Fc, V domains shown, not shown: another chain or arm of the molecule; a dimerising Fc or GST; small tags and cut ends) VL: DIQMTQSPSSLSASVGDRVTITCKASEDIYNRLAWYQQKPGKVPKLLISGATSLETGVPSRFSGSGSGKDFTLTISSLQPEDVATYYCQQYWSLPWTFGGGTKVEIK VH: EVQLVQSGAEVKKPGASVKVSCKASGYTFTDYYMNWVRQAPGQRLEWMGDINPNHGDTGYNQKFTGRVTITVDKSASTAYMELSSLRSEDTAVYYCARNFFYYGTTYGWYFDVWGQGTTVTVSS    0.25
Hab014VL1VH2-hFc (scFv, part only; not given: VL-VH linker and human IgG1 Fc, V domains shown, not shown: another chain or arm of the molecule; a dimerising Fc or GST; small tags and cut ends) VL: DIQMTQSPSSLSASVGDRVTITCKASEDIYNRLAWYQQKPGKVPKLLISGATSLETGVPSRFSGSGSGTDFTLTISSLQPEDVATYYCQQYWSLPWTFGGGTKVEIK VH: EVQLVQSGAEVKKPGASVKVSCKASGYTFTDYYMNWVRQAPGQRLEWMGDINPNHGDTGYNQKFTGRVTLTVDKSASTAYMELSSLRSEDTAVYYCARNFFYYGTTYGWYFDVWGQGTTVTVSS    0.13
Hab006VL4VH2-hFc (scFv, part only; not given: scFv linker and human IgG1 Fc, V domains shown, not shown: another chain or arm of the molecule; a dimerising Fc or GST; small tags and cut ends) VL: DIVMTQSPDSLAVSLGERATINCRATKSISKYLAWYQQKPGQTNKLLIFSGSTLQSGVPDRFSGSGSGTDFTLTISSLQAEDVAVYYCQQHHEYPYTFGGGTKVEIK VH: EVQLVQSGAEVKKPGASVKVSCKASGYTFTSYWMHWVRQAPGQRLEWMGVIDPSDSLANYNQEFKGRVTLTVDTSASTAYMELSSLRSEDTAVYYCARDSTVVAPMDYWGQGTTVTVSS    0.06

# next binder below
Task item: Need Emax of OD450 nm binding value, item Hab013VL2VH2a-hFc (scFv, part only; not given: scFv linker and human IgG1 Fc, V domains shown, not shown: another chain or arm of the molecule; a dimerising Fc or GST; small tags and cut ends) VL: EIVLTQSPATLSLSPGERATLSCRASKSVSTSGFSYMHWYQQKPGQPPRLLIYLASNLESGIPARFSGSGSGTDFTLTISSLEPEDFAVYYCQHSRELPFTFGQGTKLEIK VH: EVQLVQSGAEVKKPGSSVKVSCKASGYAFSNYWINWVRQAPGQGLEWMGQINPGDGDTIYNSKFKGRVTITADKSTSTAYMELSSLRSEDTAVYYCEREGRNYGDFAYWGQGTTVTVSS
Reply: 0.05

Sourced from patent EP4786492A1
